The origin of these recorded values is patent US10428076B2.

- experimentalTarget: human recombinant sGC enzyme (Homo sapiens (Human), UniProt Q02108+Q02153)
- experiment: Size Exclusion Chromatography (SEC) competition binding assay using [3H] Ex-77B as the radioligand
- protocolConditions: [3H] Ex-77B radioligand, 24 hours at 37° C., 300 μM DETA/NO
measurementName: Ki (nM)
Report the value in nM with no unit label.

Form field Ki, entry CC(C)(Cc1csc(C2(C3CC3)C(=O)Nc3nc(-c4nn(CCCC(F)(F)F)c5ncc(F)cc45)nc(N)c32)n1)C(=O)O (stereo not shown) [Example 96B] : 12.2
